Each entry below carries its reported melting point.

Example results:
Cc1ccc(-c2cc(COC(=O)NC(Cc3ccccc3)C(=O)O)co2)cc1 (stereo not shown) [Compound 127]: 67.7 to 68.2 °C
O=C(NC(Cc1ccncc1)C(=O)O)OCc1cc2cc(-c3ccc(F)cc3)ccc2o1 (stereo not shown) [Compound 176]: 255.2 to 255.7 °C
O=C(NC(Cc1ccccc1)C(=O)O)OCc1ccc(CSc2ccccc2)cc1 (stereo not shown) [Compound 183]: 113.3 to 114.1 °C

Now examine the next entry.
Find the recorded melting point belonging to O=C(NC(Cc1ccccc1)C(=O)O)OCc1ccc(COc2ccc(Cl)cc2)cc1 (stereo not shown) [Compound 155] and report it. 122 to 123.1 °C

---

reported.endpoint: melting point

Cn1cc(C[C@@H](NC(=O)OCc2ccc(COc3ccccc3)cc2)C(=O)O)c2ccccc21 [Compound 170]: 79.9 to 82.6 °C
O=C(NC(Cc1ccccc1)C(=O)O)OCc1cc2cc(-c3ccncc3)ccc2o1 (centres unmarked) [Compound 174]: 119 to 121 °C
Cn1cc(C[C@@H](NC(=O)OCc2ccc(-c3ccccc3)cc2)C(=O)O)c2ccccc2c1=O [Compound 149]: 215 to 217 °C

Item O=C(N[C@@H](Cc1ccccc1)C(=O)O)OCCc1cc2cc(-c3ccccc3)ccc2o1 [Compound 128] has what recorded melting point? 170.9 to 171.9 °C

What would you report for O=C(N[C@H](Cc1ccccc1)C(=O)O)OCc1ccc(COc2cccc3ncccc23)cc1 [Compound 152] ? 189.4 to 189.8 °C

Now the same for O=C(N[C@H](Cc1cccc(F)c1)C(=O)O)OCc1cc2cc(-c3ccccc3)ccc2o1 [Compound 108] 141.4 to 142.3 °C

Ok, now O=C(N[C@H](Cc1ccccc1)C(=O)O)OCc1cc2cc(-c3ccccc3)ccc2o1 [Compound 19] 154 to 156 °C

What would you report for O=C(NC(Cc1ccccc1)C(=O)O)OCc1ccc(CCOc2ccccc2)cc1 (centres unmarked) [Compound 73] ? 150.2 to 152.4 °C

---

Where a name gives a salt, the structure may show the parent alone.
reported.endpoint: melting point

Check out these entries, answers already filled in.
O=C(NC(Cc1cccnc1)C(=O)O)OCc1cc2cc(-c3ccccc3)ccc2o1 (stereo not shown) [Compound 164]: 164 to 169 °C
O=C(N[C@@H](Cc1ccc(F)cc1)C(=O)O)OCc1cc2cc(-c3ccc(F)cc3)ccc2o1 [Compound 113]: 148.3 to 157 °C
Cc1ccc(-c2ccc3oc(COC(=O)N[C@H](Cc4ccccc4)C(=O)O)cc3c2)cc1 (hydrate or solvate) [Compound 95]: 151 to 154 °C
O=C(N[C@H](Cc1ccc(F)cc1)C(=O)O)OCc1cc2cc(-c3ccccc3Cl)ccc2o1 [Compound 115]: 86.7 to 100.1 °C
O=C(N[C@H](Cc1ccc(F)cc1)C(=O)O)OCc1cc2cc(-c3ccc(F)cc3)ccc2o1 (hydrate or solvate) [Compound 111]: 158 to 162 °C

What does the data say about its melting point? Entry: COc1ccccc1OCc1ccc(COC(=O)NC(Cc2ccccc2)C(=O)O)cc1 (stereo not shown) [Compound 74] 92.6 to 93.5 °C

For O=C(N[C@H](Cc1ccccc1)C(=O)O)OCc1cc2cc(C(=O)c3ccccc3)ccc2o1 [Compound 136] then? 136.3 to 138.6 °C

Please answer likewise for O=C(N[C@H](Cc1ccccc1)C(=O)O)OCc1cc2cc(-c3cccc4[nH]ccc34)ccc2o1 (as salt: salt) [Compound 137] 100 to 106 °C

Quick one: O=C(N[C@H](Cc1ccc(F)cc1)C(=O)O)OCc1cc2cc(-c3ccccc3F)ccc2o1 [Compound 114] 105.2 to 110.2 °C

Also check O=C(N[C@H](Cc1ccccc1)C(=O)O)OCc1ccc2[nH]c(-c3ccccc3)nc2c1 [Compound 129] 165 to 215 °C

---

Counter-ions that a name gives are not always drawn.
reported.endpoint: melting point

# annotated cases, reported melting point shown
O=C(N[C@H](Cc1ccccc1)C(=O)O)OCc1cc2cc(-c3ccc4[nH]ccc4c3)ccc2o1 [Compound 138]: 90 to 95 °C
O=C(N[C@H](Cc1ccccc1)C(=O)O)OCc1nc2cc(-c3ccccc3)ccc2o1 (as salt: ammonium) [Compound 53]: 150.9 to 152.7 °C
O=C(N[C@H](Cc1ccccc1)C(=O)O)OCC1Cc2cc(-c3ccccc3)ccc2O1 (stereo partly drawn) (as salt: salt) [Compound 68]: 176.3 to 182 °C
O=C(N[C@H](Cc1ccc(Br)cc1)C(=O)O)OCc1cc2cc(-c3ccc(F)cc3)ccc2o1 [Compound 119]: 150.6 to 160 °C
O=C(NC(Cc1ccccc1)C(=O)O)OCc1ccc(OCCc2ccccc2)cc1 (stereo not drawn) [Compound 86]: 96.9 to 97.4 °C

Item under review: O=C(NC(Cc1ccccc1)C(=O)O)OCc1ccc(COc2cccc(F)c2)cc1 (stereo not drawn) [Compound 76] . Reported melting point? 107.9 to 110 °C
